Just for reference, paper PMC8689225 is where these values come from.

- TGT: mouse RyR2 NTR (Mus musculus, UniProt E9Q401, K30C/K441C, form not given)
- Sequence (E9Q401 1-547 K30C/K441C): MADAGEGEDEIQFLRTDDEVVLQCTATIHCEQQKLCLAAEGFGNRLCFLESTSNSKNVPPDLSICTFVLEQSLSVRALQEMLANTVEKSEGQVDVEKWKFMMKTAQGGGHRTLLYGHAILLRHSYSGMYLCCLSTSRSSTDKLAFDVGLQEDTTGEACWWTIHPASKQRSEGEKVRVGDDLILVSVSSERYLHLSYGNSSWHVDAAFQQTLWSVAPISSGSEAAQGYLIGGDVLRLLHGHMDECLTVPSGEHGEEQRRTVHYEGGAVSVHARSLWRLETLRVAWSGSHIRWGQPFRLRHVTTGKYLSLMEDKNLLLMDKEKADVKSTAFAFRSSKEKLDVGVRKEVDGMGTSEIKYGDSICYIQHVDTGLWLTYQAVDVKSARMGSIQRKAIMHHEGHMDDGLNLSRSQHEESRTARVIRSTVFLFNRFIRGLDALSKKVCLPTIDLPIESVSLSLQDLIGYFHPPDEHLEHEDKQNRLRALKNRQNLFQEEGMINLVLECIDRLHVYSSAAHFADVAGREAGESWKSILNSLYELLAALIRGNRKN
- MEASUREMENT NOTES: FLT-FRET dose-response with AC-NTR biosensor
- Assay type: binding
- CONDITION NOTES: AC-NTR biosensor, 0 to 100 μM; CPNQ/corbadrine decrease FLT, FA/tacrolimus increase FLT

COMPOUND	TGT	ΔFLT
CC(=O)O[C@H]1C[C@@]2(C)[C@@H](C[C@@H](O)[C@H]3[C@@]4(C)CC[C@@H](O)[C@@H](C)[C@@H]4CC[C@@]32C)/C1=C(\CCC=C(C)C)C(=O)O [FA]	mouse RyR2 NTR (Mus musculus, UniProt E9Q401, K30C/K441C, form not given)	≈ 0.1 ns
O=C(c1ccc(Cl)cc1)N1CCN(c2ccc([N+](=O)[O-])c3ncccc23)CC1 [CPNQ]	mouse RyR2 NTR (Mus musculus, UniProt E9Q401, K30C/K441C, form not given)	≈ 0.35 ns
C[C@H](N)[C@H](O)c1ccc(O)c(O)c1 [corbadrine]	mouse RyR2 NTR (Mus musculus, UniProt E9Q401, K30C/K441C, form not given)	≈ 0.35 ns
C=CC[C@@H]1/C=C(\C)C[C@H](C)C[C@H](OC)[C@H]2O[C@@](O)(C(=O)C(=O)N3CCCC[C@H]3C(=O)O[C@H](/C(C)=C/[C@@H]3CC[C@@H](O)[C@H](OC)C3)[C@H](C)[C@@H](O)CC1=O)[C@H](C)C[C@@H]2OC [tacrolimus]	mouse RyR2 NTR (Mus musculus, UniProt E9Q401, K30C/K441C, form not given)	≈ 0.1 ns

* * *

- TGT: RyR1 (Sus scrofa)
- Construct: from tissue; host or cells: porcine longissimus dorsi muscle, heavy SR vesicles
- MEASUREMENT NOTES: [3H]ryanodine binding to skeletal SR (HSR) vesicles
- Format: biochemical, pig
- CONDITION NOTES: skeletal SR, 30 μM Ca2+
PROPERTY: effect on [3H]ryanodine binding to RyR1

O=C(c1ccc(Cl)cc1)N1CCN(c2ccc([N+](=O)[O-])c3ncccc23)CC1 only slightly affected
C[C@H](N)[C@H](O)c1ccc(O)c(O)c1 strongly increased
CC(=O)O[C@H]1C[C@@]2(C)[C@@H](C[C@@H](O)[C@H]3[C@@]4(C)CC[C@@H](O)[C@@H](C)[C@@H]4CC[C@@]32C)/C1=C(\CCC=C(C)C)C(=O)O strongly increased
CSc1c(C)c(SC)n2ccncc12 only slightly affected

* * *

- TGT: RyR2 (Sus scrofa, UniProt A0A5G2R1W3)
- Construct: from tissue; host or cells: porcine cardiac left ventricle, crude SR vesicles
- Sequence (A0A5G2R1W3 20-4900): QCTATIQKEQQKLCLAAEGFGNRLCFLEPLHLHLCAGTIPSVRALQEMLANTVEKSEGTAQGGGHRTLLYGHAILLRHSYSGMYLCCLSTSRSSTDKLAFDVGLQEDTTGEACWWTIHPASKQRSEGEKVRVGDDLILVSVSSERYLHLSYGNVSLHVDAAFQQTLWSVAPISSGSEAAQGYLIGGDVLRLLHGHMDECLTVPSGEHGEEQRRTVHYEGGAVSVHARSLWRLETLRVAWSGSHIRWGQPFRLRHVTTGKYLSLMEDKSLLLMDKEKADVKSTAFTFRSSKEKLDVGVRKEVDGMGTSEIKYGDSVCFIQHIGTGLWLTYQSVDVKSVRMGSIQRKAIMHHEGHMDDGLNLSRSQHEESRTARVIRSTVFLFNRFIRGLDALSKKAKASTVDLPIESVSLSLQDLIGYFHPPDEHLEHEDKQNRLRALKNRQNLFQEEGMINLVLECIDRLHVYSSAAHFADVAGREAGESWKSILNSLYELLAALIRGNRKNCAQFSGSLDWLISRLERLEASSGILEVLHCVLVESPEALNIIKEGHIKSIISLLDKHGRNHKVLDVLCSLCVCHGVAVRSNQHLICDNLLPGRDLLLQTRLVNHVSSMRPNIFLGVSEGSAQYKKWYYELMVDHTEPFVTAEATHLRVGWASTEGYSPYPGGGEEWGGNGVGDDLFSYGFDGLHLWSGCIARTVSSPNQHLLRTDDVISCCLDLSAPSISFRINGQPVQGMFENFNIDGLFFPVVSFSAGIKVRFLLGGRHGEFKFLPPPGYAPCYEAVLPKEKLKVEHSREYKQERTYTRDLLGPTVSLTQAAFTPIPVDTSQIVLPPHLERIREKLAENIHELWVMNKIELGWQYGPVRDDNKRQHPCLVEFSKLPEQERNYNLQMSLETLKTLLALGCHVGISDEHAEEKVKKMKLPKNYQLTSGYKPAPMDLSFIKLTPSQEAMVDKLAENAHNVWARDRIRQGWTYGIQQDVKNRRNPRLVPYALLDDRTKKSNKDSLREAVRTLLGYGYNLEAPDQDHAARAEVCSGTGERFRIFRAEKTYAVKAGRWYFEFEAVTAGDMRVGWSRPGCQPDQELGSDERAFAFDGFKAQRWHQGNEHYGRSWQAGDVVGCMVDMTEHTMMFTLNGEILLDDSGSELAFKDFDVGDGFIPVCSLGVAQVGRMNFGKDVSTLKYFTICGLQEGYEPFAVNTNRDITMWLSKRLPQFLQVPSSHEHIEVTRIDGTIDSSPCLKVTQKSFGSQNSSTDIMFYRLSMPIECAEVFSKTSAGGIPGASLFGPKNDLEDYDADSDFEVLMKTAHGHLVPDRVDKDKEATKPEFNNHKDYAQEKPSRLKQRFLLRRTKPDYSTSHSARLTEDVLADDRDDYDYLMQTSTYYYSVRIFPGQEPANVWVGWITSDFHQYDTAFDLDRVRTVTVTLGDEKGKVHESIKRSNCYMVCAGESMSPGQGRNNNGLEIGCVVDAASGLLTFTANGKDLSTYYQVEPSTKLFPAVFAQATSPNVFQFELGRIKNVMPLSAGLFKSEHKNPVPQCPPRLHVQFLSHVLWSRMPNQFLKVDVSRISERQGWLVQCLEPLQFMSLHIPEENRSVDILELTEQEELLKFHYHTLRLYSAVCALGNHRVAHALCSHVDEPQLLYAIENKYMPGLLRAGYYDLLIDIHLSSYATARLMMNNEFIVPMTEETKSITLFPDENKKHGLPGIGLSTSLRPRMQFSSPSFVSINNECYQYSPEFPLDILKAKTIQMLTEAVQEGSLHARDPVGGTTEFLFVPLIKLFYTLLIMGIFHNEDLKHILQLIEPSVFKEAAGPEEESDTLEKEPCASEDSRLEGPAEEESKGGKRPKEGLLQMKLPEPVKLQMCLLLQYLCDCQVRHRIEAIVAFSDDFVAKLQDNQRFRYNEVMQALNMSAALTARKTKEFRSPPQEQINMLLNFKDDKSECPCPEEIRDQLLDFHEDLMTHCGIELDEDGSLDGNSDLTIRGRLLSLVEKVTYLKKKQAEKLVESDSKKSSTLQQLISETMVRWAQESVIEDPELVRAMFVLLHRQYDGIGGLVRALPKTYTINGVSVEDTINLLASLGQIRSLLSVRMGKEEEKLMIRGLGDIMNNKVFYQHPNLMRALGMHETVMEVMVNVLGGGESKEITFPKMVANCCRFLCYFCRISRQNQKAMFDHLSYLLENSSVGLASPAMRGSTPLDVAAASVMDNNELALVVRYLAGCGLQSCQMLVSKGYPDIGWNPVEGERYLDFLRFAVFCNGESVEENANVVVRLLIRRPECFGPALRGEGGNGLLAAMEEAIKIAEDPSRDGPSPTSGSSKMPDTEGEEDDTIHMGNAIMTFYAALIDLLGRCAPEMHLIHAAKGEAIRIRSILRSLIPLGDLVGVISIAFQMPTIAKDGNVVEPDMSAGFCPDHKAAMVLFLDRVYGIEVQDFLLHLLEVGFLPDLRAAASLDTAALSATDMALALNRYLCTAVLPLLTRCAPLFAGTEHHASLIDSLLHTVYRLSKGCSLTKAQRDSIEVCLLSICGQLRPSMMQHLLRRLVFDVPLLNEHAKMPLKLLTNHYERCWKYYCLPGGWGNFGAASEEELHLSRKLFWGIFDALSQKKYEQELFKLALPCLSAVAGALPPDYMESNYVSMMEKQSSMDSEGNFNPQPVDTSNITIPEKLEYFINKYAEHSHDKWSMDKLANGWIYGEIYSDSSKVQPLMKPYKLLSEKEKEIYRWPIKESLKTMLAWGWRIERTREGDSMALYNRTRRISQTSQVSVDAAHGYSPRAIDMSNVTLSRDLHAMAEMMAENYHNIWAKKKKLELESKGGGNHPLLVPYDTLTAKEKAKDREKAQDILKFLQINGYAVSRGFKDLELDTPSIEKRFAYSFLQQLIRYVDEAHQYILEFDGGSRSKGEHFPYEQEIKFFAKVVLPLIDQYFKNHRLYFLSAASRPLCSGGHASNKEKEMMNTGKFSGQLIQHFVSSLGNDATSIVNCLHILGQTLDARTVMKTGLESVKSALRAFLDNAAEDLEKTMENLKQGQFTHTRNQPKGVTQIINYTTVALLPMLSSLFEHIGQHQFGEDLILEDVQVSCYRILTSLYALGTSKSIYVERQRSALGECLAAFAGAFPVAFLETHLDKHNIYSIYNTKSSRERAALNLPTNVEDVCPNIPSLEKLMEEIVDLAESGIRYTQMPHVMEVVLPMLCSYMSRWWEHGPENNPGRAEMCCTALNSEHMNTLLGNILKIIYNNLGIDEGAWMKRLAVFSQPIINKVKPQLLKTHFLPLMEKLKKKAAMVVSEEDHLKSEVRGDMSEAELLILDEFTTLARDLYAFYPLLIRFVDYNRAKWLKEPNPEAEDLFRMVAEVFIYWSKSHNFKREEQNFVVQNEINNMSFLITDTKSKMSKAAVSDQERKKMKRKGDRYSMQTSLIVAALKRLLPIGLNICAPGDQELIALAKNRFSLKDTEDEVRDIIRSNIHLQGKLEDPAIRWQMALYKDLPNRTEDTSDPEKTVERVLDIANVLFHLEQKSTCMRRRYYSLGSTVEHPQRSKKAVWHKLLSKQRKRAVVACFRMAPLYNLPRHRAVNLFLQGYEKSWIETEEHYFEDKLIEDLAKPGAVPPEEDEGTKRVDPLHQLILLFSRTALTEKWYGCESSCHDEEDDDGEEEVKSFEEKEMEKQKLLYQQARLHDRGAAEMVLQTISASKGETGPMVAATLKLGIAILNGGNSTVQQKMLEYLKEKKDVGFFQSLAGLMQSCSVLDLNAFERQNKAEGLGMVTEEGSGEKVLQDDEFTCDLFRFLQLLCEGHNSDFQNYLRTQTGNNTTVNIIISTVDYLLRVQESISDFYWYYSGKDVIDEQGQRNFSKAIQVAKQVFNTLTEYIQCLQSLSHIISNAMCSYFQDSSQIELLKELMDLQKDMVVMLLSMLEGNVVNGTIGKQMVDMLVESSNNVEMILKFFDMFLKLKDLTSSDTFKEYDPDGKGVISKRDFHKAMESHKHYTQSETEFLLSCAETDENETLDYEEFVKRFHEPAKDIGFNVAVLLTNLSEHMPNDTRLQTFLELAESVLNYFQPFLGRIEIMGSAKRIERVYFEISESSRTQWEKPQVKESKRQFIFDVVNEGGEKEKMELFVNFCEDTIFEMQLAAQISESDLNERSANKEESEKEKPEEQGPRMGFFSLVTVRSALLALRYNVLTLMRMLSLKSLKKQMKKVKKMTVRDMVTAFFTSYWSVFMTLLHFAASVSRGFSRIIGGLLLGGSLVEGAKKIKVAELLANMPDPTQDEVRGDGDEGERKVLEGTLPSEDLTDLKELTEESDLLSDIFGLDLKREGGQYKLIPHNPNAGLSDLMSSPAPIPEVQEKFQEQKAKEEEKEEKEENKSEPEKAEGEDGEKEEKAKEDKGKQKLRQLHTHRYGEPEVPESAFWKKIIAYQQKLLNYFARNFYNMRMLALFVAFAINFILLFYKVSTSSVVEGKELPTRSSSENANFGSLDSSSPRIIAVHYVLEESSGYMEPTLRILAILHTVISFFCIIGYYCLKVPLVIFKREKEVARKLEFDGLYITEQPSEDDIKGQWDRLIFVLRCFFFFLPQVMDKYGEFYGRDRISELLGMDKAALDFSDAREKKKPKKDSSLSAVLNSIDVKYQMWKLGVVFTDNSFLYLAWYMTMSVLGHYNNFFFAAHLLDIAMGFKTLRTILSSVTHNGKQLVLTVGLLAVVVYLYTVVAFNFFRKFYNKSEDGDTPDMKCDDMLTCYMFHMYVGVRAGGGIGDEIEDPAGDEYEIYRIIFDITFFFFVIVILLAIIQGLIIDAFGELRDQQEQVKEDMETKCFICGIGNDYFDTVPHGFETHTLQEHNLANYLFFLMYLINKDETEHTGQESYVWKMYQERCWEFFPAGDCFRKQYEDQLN
- MEASUREMENT NOTES: [3H]ryanodine binding to cardiac SR (CSR) vesicles
- Format: biochemical, pig
PROPERTY: EC50

C[C@H](N)[C@H](O)c1ccc(O)c(O)c1 10 nM

* * *

- TGT: RyR2 (Sus scrofa, UniProt A0A5G2R1W3)
- Construct: from tissue; host or cells: porcine cardiac left ventricle, crude SR vesicles
- MEASUREMENT NOTES: [3H]ryanodine binding to cardiac SR (CSR) vesicles
- Type: biochemical, pig
- CONDITION NOTES: [Ca2+], 30 µM, Table S4; read-out: EC50, [3H]ryanodine binding, cardiac SR
pEC50: −log10 of the molar value.
PROPERTY: pEC50

CN(C)c1ccccc1CN1CCCN(Cc2ccccc2N(C)C)C1c1ccncc1 4.76

* * *

- TGT: RyR1 (Sus scrofa, UniProt P16960)
- Construct: from tissue; host or cells: porcine longissimus dorsi muscle, heavy SR vesicles
- MEASUREMENT NOTES: [3H]ryanodine binding to skeletal SR (HSR) vesicles
- Format: biochemical, pig
- CONDITION NOTES: skeletal SR, 30 nM Ca2+
# Lookup of reported maximum inhibitory effect on [3H]ryanodine binding keyed by entry
PROPERTY: maximum inhibitory effect on [3H]ryanodine binding

CC(=O)O[C@H]1C[C@@]2(C)[C@@H](C[C@@H](O)[C@H]3[C@@]4(C)CC[C@@H](O)[C@@H](C)[C@@H]4CC[C@@]32C)/C1=C(\CCC=C(C)C)C(=O)O ~50%
CN(C)c1ccccc1CN1CCCN(Cc2ccccc2N(C)C)C1c1ccncc1 ~50%
CSc1c(C)c(SC)n2ccncc12 ~50%
C[C@H](N)[C@H](O)c1ccc(O)c(O)c1 ~70%

* * *

- TGT: RyR2 (Sus scrofa, UniProt A0A5G2R1W3)
- Construct: from tissue; host or cells: porcine cardiac left ventricle, crude SR vesicles
- MEASUREMENT NOTES: [3H]ryanodine binding to cardiac SR (CSR) vesicles
- Type: biochemical, pig
- CONDITION NOTES: [Ca2+] 30 nM, Table S4; read-out: EC50, [3H]ryanodine binding, cardiac SR
PROPERTY: EC50 (nM)

O=C(c1ccc(Cl)cc1)N1CCN(c2ccc([N+](=O)[O-])c3ncccc23)CC1 20
CN(C)c1ccccc1CN1CCCN(Cc2ccccc2N(C)C)C1c1ccncc1 4
CC(=O)O[C@H]1C[C@@]2(C)[C@@H](C[C@@H](O)[C@H]3[C@@]4(C)CC[C@@H](O)[C@@H](C)[C@@H]4CC[C@@]32C)/C1=C(\CCC=C(C)C)C(=O)O 1700

* * *

- TGT: RyR1 (Sus scrofa, UniProt P16960)
- Construct: from tissue; host or cells: porcine longissimus dorsi muscle, heavy SR vesicles
- MEASUREMENT NOTES: [3H]ryanodine binding to skeletal SR (HSR) vesicles
- Assay type: biochemical, pig
- CONDITION NOTES: EC50, [3H]ryanodine binding, skeletal HSR, [Ca2+], 30 µM, Table S4
PROPERTY: EC50 (µM)

COMPOUND	REPORTED MEASUREMENT
C[C@H](N)[C@H](O)c1ccc(O)c(O)c1 [corbadrine]	15.3
